// provenance: paper PMC9940446

protocol: Lipophilicity, shake-flask n-octanol/PBS
Assay type: physicochemical
applied conditions: n-octanol/phosphate-buffered saline, pH 7.4
attribute measured: logD
I only need the number, thanks.

Ask: Give reported logD value for CC(=O)N[C@@H](CCCCNC(=O)c1cccc(I)c1)C(=O)NCCCCCC(=O)N[C@H](C(=O)N[C@@H](CO)C(=O)N[C@@H](Cc1ccccc1)C(=O)N[C@]1(C)CCCCCCC=CCCC[C@@](C)(C(=O)N[C@@H](CCC(=O)O)C(=O)N[C@@H](CC(N)=O)C(=O)N[C@@H](Cc2ccccc2)C(N)=O)NC(=O)[C@H](CC(C)C)NC(=O)[C@H](CC(C)C)NC(=O)[C@H](C)NC(=O)[C@H](Cc2c[nH]c3ccccc23)NC(=O)[C@H](Cc2ccc(O)cc2)NC(=O)[C@H](CCC(=O)O)NC1=O)[C@@H](C)O [[^125I]SIB-VIP116]
Reply: 1.45
